study target: ACVRL1 (human) (UniProt P37023)
Sequence (P37023 whole entry, looked up): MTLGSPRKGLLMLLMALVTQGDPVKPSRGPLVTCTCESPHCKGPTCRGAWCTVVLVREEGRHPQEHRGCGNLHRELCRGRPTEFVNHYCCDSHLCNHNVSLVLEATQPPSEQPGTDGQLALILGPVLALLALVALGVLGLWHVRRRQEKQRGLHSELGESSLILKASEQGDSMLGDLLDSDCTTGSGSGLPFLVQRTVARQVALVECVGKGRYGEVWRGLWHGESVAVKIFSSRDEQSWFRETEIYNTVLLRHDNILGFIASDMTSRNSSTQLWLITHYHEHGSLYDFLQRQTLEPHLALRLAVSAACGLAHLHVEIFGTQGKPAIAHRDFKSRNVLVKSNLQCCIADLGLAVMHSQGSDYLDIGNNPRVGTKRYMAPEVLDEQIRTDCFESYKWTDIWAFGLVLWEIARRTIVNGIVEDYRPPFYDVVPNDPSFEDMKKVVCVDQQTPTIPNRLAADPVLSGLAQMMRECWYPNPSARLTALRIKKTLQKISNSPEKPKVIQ
method: radiometric filter-binding kinase assay, Kinase HotSpot
conditions: compound 0.5 µM; ATP 10 µM
Give measured residual activity for each item. Keep answers brief.
Numbers only, in %.

CO[C@H]1CC2CC[C@@H](C)[C@@](O)(O2)C(=O)C(=O)N2CCCC[C@H]2C(=O)OC([C@H](C)C[C@@H]2CC[C@@H](O)[C@H](OC)C2)CC(=O)[C@H](C)/C=C(\C)[C@@H](O)[C@@H](OC)C(=O)[C@H](C)C[C@H](C)/C=C/C=C/C=C/1C (stereo partly specified)    97.9
Cc1ccc(S(=O)(=O)/C=C/C#N)cc1    100
COc1ccc2c(c[n+](C)c3c4cc5c(cc4ccc23)OCO5)c1OC    99.2
O=C(Nc1cccc(Nc2nccc(Nc3cccc(C(F)(F)F)c3)n2)c1)C1CC1    84.6

// each compound listed below needs its residual activity
1. O=C1NC(=O)c2c1c1c3ccccc3n3c1c1c2c2ccccc2n1C1CCC3O1
2. CC(=O)c1ccc(N2CCOCC2)cc1O

1: 78.6; 2: 103

* * *

study target: DAPK1 (human)
method: radiometric filter-binding kinase assay, Kinase HotSpot
conditions: compound 0.5 µM; ATP 10 µM
value type: residual activity (%)
Numbers only, in %.

Examples from the recorded data:
Nc1ccc2ncnc(NCCc3ccc(Oc4ccccc4)cc3)c2c1    110
CCOC(=O)c1c(C)[nH]c(/C=C2\C(=O)Nc3ccccc32)c1C    100
COc1ccc2c(c[n+](C)c3c4cc5c(cc4ccc23)OCO5)c1OC    86.7
O=c1cc(N2CCOCC2)oc2c1ccc1ccccc12    90.9
Cc1[nH]c(/C=C2\C(=O)Nc3ccc(S(=O)(=O)N(C)c4cccc(Cl)c4)cc32)c(C)c1C(=O)N1CCN(C)CC1    106
CCC(=O)Nc1ccc2ncnc(Nc3cccc(Br)c3)c2c1    99.4
O=C(Nc1cccc(Nc2nccc(Nc3cccc(C(F)(F)F)c3)n2)c1)C1CC1    83.5
Cc1ccc(Nc2nccc(N(C)c3ccc4c(C)n(C)nc4c3)n2)cc1S(N)(=O)=O    105
CCCC(=O)Oc1ccc2[nH]c(C(=O)c3cc4ccccc4[nH]3)cc2c1    85.8
COc1ccc(COc2ccc(Cc3cnc(N)nc3N)cc2OC)cc1    102

// each compound listed below needs its residual activity
1. Cc1ccc(NC2=CC(=O)c3sc(C)nc3C2=O)cc1
2. c1ccc(-c2n[nH]c3c2oc2ccccc23)cc1
3. O=C1NC(=O)C(c2cn(CCCn3ccnc3)c3ccccc23)=C1Nc1ccccc1
4. O=C1NC(=O)/C(=C/c2ccc3c(c2)OC(F)(F)O3)S1

1: 105; 2: 71; 3: 99.2; 4: 120

* * *

study target: CDK5 CDK5R1 p25 (human) (UniProt Q00535+Q15078)
Sequence (Q00535 whole entry, looked up): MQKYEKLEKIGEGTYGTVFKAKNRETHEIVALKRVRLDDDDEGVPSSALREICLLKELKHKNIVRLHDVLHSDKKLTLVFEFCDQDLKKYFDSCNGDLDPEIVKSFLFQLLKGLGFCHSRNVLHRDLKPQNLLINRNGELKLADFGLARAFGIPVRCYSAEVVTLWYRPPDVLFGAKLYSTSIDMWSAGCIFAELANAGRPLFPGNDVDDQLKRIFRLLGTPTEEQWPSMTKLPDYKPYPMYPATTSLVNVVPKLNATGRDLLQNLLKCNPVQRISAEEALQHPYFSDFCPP
Sequence (Q15078 whole entry, looked up): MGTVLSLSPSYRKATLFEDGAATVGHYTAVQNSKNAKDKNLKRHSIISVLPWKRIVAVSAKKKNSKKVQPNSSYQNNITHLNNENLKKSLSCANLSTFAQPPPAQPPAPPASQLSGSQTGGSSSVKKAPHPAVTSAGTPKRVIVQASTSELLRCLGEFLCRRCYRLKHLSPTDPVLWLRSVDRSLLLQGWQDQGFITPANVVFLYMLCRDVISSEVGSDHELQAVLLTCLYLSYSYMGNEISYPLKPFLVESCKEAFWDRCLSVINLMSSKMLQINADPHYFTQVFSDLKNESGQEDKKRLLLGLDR
method: radiometric filter-binding kinase assay, Kinase HotSpot
conditions: compound 0.5 µM; ATP 10 µM
Give measured residual activity for each item. Keep answers brief.
Give bare numbers, in %.

Cc1nc(Nc2ncc(C(=O)Nc3c(C)cccc3Cl)s2)cc(N2CCN(CCO)CC2)n1    102
c1ccc(-c2n[nH]cc2-c2ccnc3ccccc23)nc1    97.2
COc1ccc(COc2ccc(Cc3cnc(N)nc3N)cc2OC)cc1    103

// each molecule listed below needs its residual activity
1. O=C1NC(=O)C(c2cn(CCCn3ccnc3)c3ccccc23)=C1Nc1ccccc1
2. CC(C)N(CCC(=O)c1ccc2ccccc2c1)Cc1ccccc1
3. O=C1Nc2ccc(Cl)cc2/C1=C/c1cc(Cl)c(O)c(Cl)c1
4. c1ccc(-c2n[nH]c3c2oc2ccccc23)cc1
5. CC#CC(=O)Nc1cc2c(Nc3ccc(F)c(Cl)c3)ncnc2cn1

1: 86; 2: 96.5; 3: 82.6; 4: 99; 5: 99.2

// each molecule listed below needs its residual activity
1. CCOC(=O)c1c(C)[nH]c(/C=C2\C(=O)Nc3ccccc32)c1C
2. Cc1ccc(S(=O)(=O)/C=C/C#N)cc1
3. CCN(CC)C(=O)c1ccc(Nc2nc(OCC3CCCCC3)c3nc[nH]c3n2)cc1

[92.7, 86.8, 77.2]
